pIC50: −log10 of the molar value.
Literature pIC50 values, system: ROCK2 (Homo sapiens).
Sequence (O75116 whole entry, species assumed): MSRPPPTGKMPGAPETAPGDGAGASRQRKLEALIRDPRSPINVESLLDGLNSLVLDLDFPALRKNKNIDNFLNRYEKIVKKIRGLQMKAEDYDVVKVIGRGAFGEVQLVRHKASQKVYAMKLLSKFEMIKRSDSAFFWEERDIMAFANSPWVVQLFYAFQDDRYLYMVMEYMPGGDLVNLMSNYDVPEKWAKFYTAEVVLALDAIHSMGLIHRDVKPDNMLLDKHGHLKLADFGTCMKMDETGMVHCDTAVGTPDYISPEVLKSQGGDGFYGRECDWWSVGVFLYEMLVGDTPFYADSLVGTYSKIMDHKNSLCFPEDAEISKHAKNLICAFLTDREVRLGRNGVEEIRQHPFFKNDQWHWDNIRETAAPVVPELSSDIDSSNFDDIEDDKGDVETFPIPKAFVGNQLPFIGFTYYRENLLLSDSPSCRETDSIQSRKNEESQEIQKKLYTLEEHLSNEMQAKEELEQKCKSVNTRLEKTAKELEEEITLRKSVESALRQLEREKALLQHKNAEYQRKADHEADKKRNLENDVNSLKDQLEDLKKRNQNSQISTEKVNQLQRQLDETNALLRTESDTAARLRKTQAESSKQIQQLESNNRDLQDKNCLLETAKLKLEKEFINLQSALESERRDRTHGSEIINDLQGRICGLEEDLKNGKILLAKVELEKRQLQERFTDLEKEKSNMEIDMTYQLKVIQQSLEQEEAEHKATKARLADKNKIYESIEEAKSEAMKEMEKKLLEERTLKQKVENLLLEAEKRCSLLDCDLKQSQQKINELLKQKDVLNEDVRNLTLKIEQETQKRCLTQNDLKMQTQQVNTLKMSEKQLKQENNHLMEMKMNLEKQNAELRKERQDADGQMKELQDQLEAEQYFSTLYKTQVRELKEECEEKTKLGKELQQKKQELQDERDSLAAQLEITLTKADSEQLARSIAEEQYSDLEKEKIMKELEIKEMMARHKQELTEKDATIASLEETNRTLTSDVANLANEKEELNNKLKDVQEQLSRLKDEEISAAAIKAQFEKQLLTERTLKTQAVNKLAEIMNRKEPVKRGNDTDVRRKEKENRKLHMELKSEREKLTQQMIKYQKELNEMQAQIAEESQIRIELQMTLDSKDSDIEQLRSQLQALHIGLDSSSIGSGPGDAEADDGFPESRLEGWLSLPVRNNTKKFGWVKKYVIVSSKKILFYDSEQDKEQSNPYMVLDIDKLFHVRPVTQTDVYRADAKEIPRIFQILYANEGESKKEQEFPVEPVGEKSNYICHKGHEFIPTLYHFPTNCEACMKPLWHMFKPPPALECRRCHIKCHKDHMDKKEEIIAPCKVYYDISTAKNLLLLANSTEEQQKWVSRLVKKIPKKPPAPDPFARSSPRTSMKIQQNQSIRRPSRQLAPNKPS

>  <molecule>
CCOc1cc(F)cc([C@@H](CO)NC(=O)N2CCc3cc(-c4cn[nH]c4)c(F)cc32)c1

>  <tgt>
ROCK2 (Homo sapiens)

>  <experimental-result>
≥ 7.30

$$$$

Record summary for O=C1COc2cc(NC3CCN(c4ccc(-c5n[nH]c(=O)c6ccccc56)cc4)C3=O)ccc2N1 (single isomer, unassigned) : reported pIC50 = > 8.00

// field: pIC50; key: Cn1cc(-c2ccc3c(C(=O)NC4CC5(C4)CC(c4n[nH]c(=O)c6ccccc46)C5)cnn3c2)c(C(F)(F)F)n1 (stereo not shown) ; value = 8.70 to 9.70

// sample COc1ccc2c(c1)CC1(CCN(c3ccc(-c4cn[nH]c4)cc3)C1=O)N2 (stereo not shown) , its pIC50 was 6.52 to 7.52

###

Note to self: these compounds have IC50 reported for UniProtKB O75116 in various publications.

>  <compound>
O=C1C(Nc2cccc(OC(F)F)c2)CCN1c1ccc(-c2c[nH]c(=O)c3ccccc23)cc1 (single isomer, unassigned)

>  <tgt>
UniProtKB O75116

>  <IC50>
10 to 100 nM

$$$$
>  <compound>
CC(=O)N1CCC2(CC1)CN(c1ccc(-c3cn[nH]c3)cc1)C(=O)N2Cc1ccc(F)cc1F

>  <tgt>
UniProtKB O75116

>  <IC50>
30 to 250 nM

$$$$

Kindly review the next compound as well.
The compound listed as COc1nc(-n2ccn(CC3CCCO3)c2=O)ccc1-c1cn[nH]c1 (stereo not drawn) shows IC50 equal to 20.1 to 200 nM
